EXPERIMENTAL TARGET: human glucagon receptor (human, UniProt P47871 26-477)
Sequence (P47871 26-477): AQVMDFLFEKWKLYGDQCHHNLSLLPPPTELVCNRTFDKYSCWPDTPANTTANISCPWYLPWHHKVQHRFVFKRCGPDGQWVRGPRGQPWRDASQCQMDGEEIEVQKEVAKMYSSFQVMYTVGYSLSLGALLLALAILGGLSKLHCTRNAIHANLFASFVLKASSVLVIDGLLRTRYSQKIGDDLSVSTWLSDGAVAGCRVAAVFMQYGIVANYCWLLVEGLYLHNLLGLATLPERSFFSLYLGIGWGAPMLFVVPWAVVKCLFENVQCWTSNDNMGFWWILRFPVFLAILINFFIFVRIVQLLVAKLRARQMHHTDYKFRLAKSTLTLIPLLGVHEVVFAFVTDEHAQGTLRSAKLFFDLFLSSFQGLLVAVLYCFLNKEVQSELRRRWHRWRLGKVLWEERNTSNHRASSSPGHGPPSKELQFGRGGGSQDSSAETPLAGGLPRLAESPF
MEASUREMENT DESCRIPTION: cell-based or functional assay
Numbered stars: 1 amine (or outer) side, 2 acyl side, 3 side chain; on linkers, the order of the positions; unused ones are H or OH. Square brackets hold non-standard residues; d marks the D form. Side chains are listed from the residue outwards. Ends that are not written are not given here. γGlu = O=C(O)[C@H](CCC(=O)[*:2])N[*:1]; x53 = not defined here; Aib = CC(C)(N)C(=O)O
ASSAY METRIC: EC50 hGlucagon-R (cAMP) (pM)
Please reply with the bare figure in pM and do not write the unit itself.

Return reported EC50 hGlucagon-R (cAMP); argument: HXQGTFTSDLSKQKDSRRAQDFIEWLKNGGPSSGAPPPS (dSer at 2; K(γE-x53) at 14; C-terminal NH(tert.butyl)) [SEQ ID NO: 100]
2

Return reported EC50 hGlucagon-R (cAMP); argument: H[Aib]QGTFTSDLSKQK([γGlu-x53])ESRRAQDFIEWLKAGGPSSGAPPPS-NH2 (reading uncertain) [SEQ ID NO: 77]
11.9

Return reported EC50 hGlucagon-R (cAMP); argument: HXQGTFTSDLSKQKESXAAQLFIEWLKAGGPSSGAPPPS (dSer at 2; K(γE-x53) at 14; Aib at 17; C-terminal NH2) [SEQ ID NO: 15]
176
